FYI, the data here is from ChEMBL document CHEMBL1157539.

Tested on: HepG2
Test: GSK_TCMDC: Percent inhibition of human HepG2 cell line. Test compounds present at 10uM.
Type: functional

- molecule: "COc1ccc2nc(C)cc(NCc3ccc4ccccc4c3)c2c1.Cl"
  readout.units: "%"
  Inhibition: 21
- molecule: "Cc1ccc(CCC(C)NCC(O)c2cccc(C(F)(F)F)c2)cc1 (centres undefined)"
  readout.units: "%"
  Inhibition: 0
- molecule: "Cl.c1cc2[nH]c(CCCCc3nc4cc(C5=N[C@H]6CCCC[C@H]6N5)ccc4[nH]3)nc2cc1C1=N[C@H]2CCCC[C@H]2N1"
  readout.units: "%"
  Inhibition: 5
- molecule: "CNC(=O)c1cnc(Nc2ccc(OCC(O)CN(C)C)cc2)nc1Nc1cccc(OC(C)C)c1.O=C(O)C(F)(F)F (centres undefined)"
  readout.units: "%"
  Inhibition: 21
- molecule: "Cc1ccc(Nc2nc(N/N=C/c3cccc(O)c3)nc(Nc3ccc([N+](=O)[O-])cc3)n2)cc1C"
  readout.units: "%"
  Inhibition: 0
- molecule: "CC(=O)N(C)C1CCN(Cc2ccc(-c3ccc(-c4nc5cc(F)ccc5[nH]4)s3)cc2)C1.O=C(O)C(F)(F)F (centres undefined)"
  readout.units: "%"
  Inhibition: 46
- molecule: "O=C(O)C(F)(F)F.O=S(=O)(NCCN1CCCC1)c1cccc(-c2ccc(CNCc3ccccc3)cc2)c1"
  readout.units: "%"
  Inhibition: 54
- molecule: "CC(=O)C=C1CC(=O)N(C[C@@H](O)[C@H]2O[C@@H]3OC(C)(C)O[C@@H]3[C@H]2O)c2ccccc2N1"
  readout.units: "%"
  Inhibition: 0
- molecule: "Cc1cccc2nc(-c3ccc(-c4cccc(NC(=O)c5cncn5C)c4)s3)[nH]c12"
  readout.units: "%"
  Inhibition: 13
- molecule: "Cc1ccc2[nH]c(C)cc(=NN=Cc3cccc(Cl)c3)c2c1"
  readout.units: "%"
  Inhibition: 12
- molecule: "CCCN(Cc1nnc(-c2ccco2)o1)C(=O)C1CCCN(C(=O)c2ccc(Cl)cc2)C1 (centres undefined)"
  readout.units: "%"
  Inhibition: 0
- molecule: "Nc1nc(N)c2c(ccc3c2ccn3CCCCO)n1"
  readout.units: "%"
  Inhibition: 61
- molecule: "OC(CNCc1ccccc1OCc1ccccc1)c1cc(C(F)(F)F)cc(C(F)(F)F)c1 (centres undefined)"
  readout.units: "%"
  Inhibition: 3
- molecule: "Cc1ccc(N(CCC(=N)N)Cc2ccccc2)cc1.Cl"
  readout.units: "%"
  Inhibition: 6
- molecule: "Cl.Nc1nc(N)c2c(Cl)c(N(Cc3ccccc3)Cc3ccccc3)ccc2n1"
  readout.units: "%"
  Inhibition: 66
- molecule: "CN(C)c1nc(NCc2ccccc2)nc(N/N=C/c2cc([N+](=O)[O-])ccc2O)n1"
  readout.units: "%"
  Inhibition: 48
- molecule: "CS(=O)(=O)O.FC(F)(F)COc1ccc(CNCCCCCCNCc2ccc(OCC(F)(F)F)c3ccccc23)c2ccccc12"
  readout.units: "%"
  Inhibition: 99
- molecule: "CCCOc1ccccc1C(=O)Nc1nonc1-c1ccc(OCC)c(OCC)c1"
  readout.units: "%"
  Inhibition: 46
- molecule: "Cl.c1ccc(Cn2nnnc2-c2cccc(Nc3ccnc4cc(-c5nccs5)ccc34)c2)cc1"
  readout.units: "%"
  Inhibition: 51

---

System: HepG2
Experiment: GSK_TCMDC: Percent inhibition of human HepG2 cell line. Test compounds present at 10uM.
Assay type: functional

- compound: "CC(Cc1ccc(C(=O)Nc2ccc(CC(C)NCCc3cccc(Cl)c3)cc2)cc1)NCCc1ccc(C(F)(F)F)cc1 (centres undefined)"
  target.under.test: "HepG2"
  readout.units: "%"
  Inhibition: 98
- compound: "O=C1C(c2ccccc2)=C(Nc2ccc([N+](=O)[O-])cc2)c2ccccc21"
  target.under.test: "HepG2"
  readout.units: "%"
  Inhibition: 0
- compound: "CCCc1cn2c3c(cc(C(=O)N[C@@H](Cc4ccccc4)[C@H](O)CNC4CCCCC4)cc13)N(C)S(=O)(=O)CC2.O=CO"
  target.under.test: "HepG2"
  readout.units: "%"
  Inhibition: 3
- compound: "COc1ccc(CNCCCCCCNCc2ccc(OC)c3ccccc23)c2ccccc12.Cl"
  target.under.test: "HepG2"
  readout.units: "%"
  Inhibition: 100
- compound: "NC(=O)c1ccc(NC(=O)CN(Cc2ccc(Cl)cc2)S(=O)(=O)c2ccccc2)cc1"
  target.under.test: "HepG2"
  readout.units: "%"
  Inhibition: 2
- compound: "Cc1nc2ccccc2c(=O)n1NCc1ccc(Cl)c(Cl)c1"
  target.under.test: "HepG2"
  readout.units: "%"
  Inhibition: 12
- compound: "COc1ccc2c(NN=Cc3ccc(N(C)C)cc3)ccnc2c1"
  target.under.test: "HepG2"
  readout.units: "%"
  Inhibition: 12
- compound: "CC(C)[C@H](NC(=O)c1c(F)cccc1F)C(=O)Nc1ccc(Cc2nc3ccccc3s2)cc1"
  target.under.test: "HepG2"
  readout.units: "%"
  Inhibition: 3
- compound: "O=C(/C=C/c1ccc(Cl)c(Cl)c1)NCC[C@@H]1C[C@H]1CCN1CCC(c2c[nH]c3ccccc23)CC1"
  target.under.test: "HepG2"
  readout.units: "%"
  Inhibition: 98
